Molecular target: MCT8 (hMCT8) (Homo sapiens)
Sequence (P36021 2-539): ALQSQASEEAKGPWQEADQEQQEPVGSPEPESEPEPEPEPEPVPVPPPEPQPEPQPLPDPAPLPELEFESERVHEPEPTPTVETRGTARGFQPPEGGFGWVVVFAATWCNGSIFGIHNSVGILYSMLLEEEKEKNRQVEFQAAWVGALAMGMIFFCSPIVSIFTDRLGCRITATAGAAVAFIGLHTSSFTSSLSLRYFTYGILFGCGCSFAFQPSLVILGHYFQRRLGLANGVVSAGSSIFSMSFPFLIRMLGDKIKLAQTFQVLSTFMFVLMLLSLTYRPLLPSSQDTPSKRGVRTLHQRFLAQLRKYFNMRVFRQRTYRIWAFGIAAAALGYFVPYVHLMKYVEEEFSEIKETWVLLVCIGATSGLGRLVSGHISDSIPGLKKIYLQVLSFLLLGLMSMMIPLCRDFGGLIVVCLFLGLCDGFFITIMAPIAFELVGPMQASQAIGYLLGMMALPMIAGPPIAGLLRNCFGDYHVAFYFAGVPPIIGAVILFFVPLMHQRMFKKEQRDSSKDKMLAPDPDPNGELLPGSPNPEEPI
Assay: radiolabelled iodothyronine uptake inhibition in transfected COS1 cells
Format: cell-based
measured attribute: IC50 (µM)
Give the number; µM is assumed, so skip it.

Log: MCT8 (hMCT8) (Homo sapiens), compound COc1cc([C@@H]2Oc3c(O)cc([C@H]4Oc5cc(O)cc(O)c5C(=O)[C@@H]4O)cc3[C@H]2CO)ccc1O , IC50 = 0.12

----------
Target: LAT2 (hSLC7A8, cotransfected with hSLC3A2) (Homo sapiens)
Sequence (Q9UHI5 whole entry): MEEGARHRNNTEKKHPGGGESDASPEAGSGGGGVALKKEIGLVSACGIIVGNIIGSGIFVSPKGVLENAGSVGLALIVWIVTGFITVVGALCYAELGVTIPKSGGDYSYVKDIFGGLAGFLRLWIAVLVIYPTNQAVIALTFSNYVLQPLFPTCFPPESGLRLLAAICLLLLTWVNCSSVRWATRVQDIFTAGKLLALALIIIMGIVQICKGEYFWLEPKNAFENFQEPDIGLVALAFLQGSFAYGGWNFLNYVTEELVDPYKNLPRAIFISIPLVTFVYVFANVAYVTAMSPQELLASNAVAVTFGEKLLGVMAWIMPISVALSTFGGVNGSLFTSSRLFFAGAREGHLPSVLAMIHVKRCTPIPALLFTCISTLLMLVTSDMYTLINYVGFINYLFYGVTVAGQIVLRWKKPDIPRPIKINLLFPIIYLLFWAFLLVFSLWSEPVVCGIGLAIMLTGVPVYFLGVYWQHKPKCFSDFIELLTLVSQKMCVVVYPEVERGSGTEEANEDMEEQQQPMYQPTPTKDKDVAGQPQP
Sequence (P08195 103-630 partner): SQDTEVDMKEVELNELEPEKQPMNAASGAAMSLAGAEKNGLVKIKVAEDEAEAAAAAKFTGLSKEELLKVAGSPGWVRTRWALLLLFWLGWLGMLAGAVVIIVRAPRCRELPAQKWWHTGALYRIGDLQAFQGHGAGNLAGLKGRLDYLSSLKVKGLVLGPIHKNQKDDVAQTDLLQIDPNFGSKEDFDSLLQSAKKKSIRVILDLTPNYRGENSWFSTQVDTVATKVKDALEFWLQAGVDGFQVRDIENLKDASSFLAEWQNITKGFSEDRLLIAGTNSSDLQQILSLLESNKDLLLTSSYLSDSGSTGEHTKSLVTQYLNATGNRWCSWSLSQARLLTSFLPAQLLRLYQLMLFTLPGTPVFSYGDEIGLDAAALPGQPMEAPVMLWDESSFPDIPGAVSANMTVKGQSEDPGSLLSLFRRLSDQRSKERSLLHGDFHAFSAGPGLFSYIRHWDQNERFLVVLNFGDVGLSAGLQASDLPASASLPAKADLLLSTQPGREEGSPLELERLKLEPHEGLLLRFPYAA
Experiment: radiolabelled iodothyronine uptake inhibition in transfected COS1 cells
measured attribute: IC50

# compound NC1(C(=O)O)CC2CCC1C2 (stereo not shown) ; its IC50 = ~100 µM

----------
Target: LAT1 (hSLC7A5, cotransfected with hSLC3A2) (Homo sapiens, UniProt Q01650)
Sequence (Q01650 whole entry): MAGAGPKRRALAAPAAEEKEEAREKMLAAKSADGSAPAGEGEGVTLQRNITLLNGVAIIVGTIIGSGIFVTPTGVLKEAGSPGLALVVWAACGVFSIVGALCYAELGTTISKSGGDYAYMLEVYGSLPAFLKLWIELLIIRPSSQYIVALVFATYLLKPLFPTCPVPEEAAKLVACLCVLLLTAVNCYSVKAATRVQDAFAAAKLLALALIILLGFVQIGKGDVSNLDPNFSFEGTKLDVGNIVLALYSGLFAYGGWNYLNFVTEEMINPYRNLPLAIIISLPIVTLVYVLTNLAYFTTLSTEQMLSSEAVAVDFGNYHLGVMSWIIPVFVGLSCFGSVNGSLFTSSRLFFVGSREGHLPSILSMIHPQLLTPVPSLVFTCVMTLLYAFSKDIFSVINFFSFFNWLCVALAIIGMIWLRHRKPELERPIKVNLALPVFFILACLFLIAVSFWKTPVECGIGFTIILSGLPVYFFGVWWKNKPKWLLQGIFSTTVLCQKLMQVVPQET
Sequence (P08195 103-630 partner): as the sequence (P08195 103-630 partner) above
Assay: radiolabelled iodothyronine uptake inhibition in transfected COS1 cells
measured attribute: pIC50
# pIC50: negative log10 of molar concentration; output just the value

Log: LAT1 (hSLC7A5, cotransfected with hSLC3A2) (Homo sapiens, UniProt Q01650), compound NC1(C(=O)O)CC2CCC1C2 (stereo not shown) , pIC50 = 3.84

----------
Target: OATP1A2 (Human (h) OATP1A2) (Homo sapiens, UniProt P46721)
Sequence (P46721 whole entry): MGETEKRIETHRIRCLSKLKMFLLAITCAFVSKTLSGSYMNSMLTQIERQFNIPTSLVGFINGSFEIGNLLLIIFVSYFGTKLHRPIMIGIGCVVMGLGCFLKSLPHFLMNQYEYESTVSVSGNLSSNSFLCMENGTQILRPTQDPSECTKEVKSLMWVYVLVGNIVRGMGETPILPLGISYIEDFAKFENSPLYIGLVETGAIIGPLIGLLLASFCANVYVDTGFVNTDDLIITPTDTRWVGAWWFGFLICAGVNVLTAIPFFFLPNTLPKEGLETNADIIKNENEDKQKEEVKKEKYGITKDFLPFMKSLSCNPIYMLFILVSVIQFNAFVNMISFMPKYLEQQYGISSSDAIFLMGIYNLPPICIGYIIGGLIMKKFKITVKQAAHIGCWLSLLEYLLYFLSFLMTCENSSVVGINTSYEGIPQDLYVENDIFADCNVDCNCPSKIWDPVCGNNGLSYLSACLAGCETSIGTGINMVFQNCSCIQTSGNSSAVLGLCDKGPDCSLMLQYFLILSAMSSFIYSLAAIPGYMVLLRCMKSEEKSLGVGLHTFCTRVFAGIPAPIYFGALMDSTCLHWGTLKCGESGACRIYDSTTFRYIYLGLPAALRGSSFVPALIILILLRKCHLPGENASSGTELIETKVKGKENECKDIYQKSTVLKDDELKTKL
Assay: radiolabelled iodothyronine uptake inhibition in transfected COS1 cells
measured attribute: IC50 (µM)
Give the number; µM is assumed, so skip it.

Example entries and their recorded answers appear below.
compound	scale unit	IC50
CO[C@H]1/C=C/O[C@@]2(C)Oc3c(C)c(O)c4c(O)c(c(/C=N/N5CCN(C)CC5)c(O)c4c3C2=O)NC(=O)/C(C)=C\C=C\[C@H](C)[C@H](O)[C@@H](C)[C@@H](O)[C@@H](C)[C@H](OC(C)=O)[C@@H]1C [Rifampicin]	µM	50
C[C@@H]1O[C@@H](O[C@H]2[C@H](Oc3cc(O)c4c(c3)O[C@H](c3ccc(O)cc3)CC4=O)O[C@H](CO)[C@@H](O)[C@@H]2O)[C@H](O)[C@H](O)[C@H]1O [Naringin]	µM	23

// switching to the query compound
# compound COc1ccc(CCN(C)CCCC(C#N)(c2ccc(OC)c(OC)c2)C(C)C)cc1OC (stereo not shown) [Verapamil] ; its IC50 = 1.5
